- Test system: DeltatarO mutant
- assay name: S. aureus survival, RN4220 and DeltatarO strains – OD600, teichoic acid synthesis inhibitors, primary screen (AID 463173)
- experimental conditions: S. aureus RN4220 wild type/DeltatarO growth, OD600, 18 h, screened at 18.75 µg/mL (by protocol)
Out of some 52,000 compounds screened, about 4,300 (8.3%) were called active. Rule as the data show it: active = survival mostly below about 52% (no sharp cut-off); inactive = mostly above about 56%. Many of the other results were omitted from the sample, so actives are more common in it than they were.
Select the correct class. Options are yes (active), no (inactive) and nothing else.

// outcome(item) with item = Cc1cc(C)c(NC(=O)CSc2nccn2-c2cccc(Cl)c2)c(C)c1 no

// outcome(item) with item = COc1ccccc1-c1nc2c(c(SCc3cc(C)ccc3C)n1)Cc1c(CO)cnc(C)c1O2 yes

// outcome(item) with item = CCc1ccc(CSc2nc(-c3ccccc3OC)nc3c2Cc2c(CO)cnc(C)c2O3)cc1 no

// outcome(item) with item = Cc1ccc(C)c(CSc2nc(-c3ccccc3F)nc3c2Cc2c(CO)cnc(C)c2O3)c1 no

// outcome(item) with item = Cc1ncc(CO)c2c1Oc1nc(-c3ccccc3)nc(SCC(=O)N3CCCCC3)c1C2 no

// outcome(item) with item = Cc1ccc(-c2nc3c(c(SCC(=O)N(C)c4ccccc4)n2)Cc2c(CO)cnc(C)c2O3)cc1 no

// outcome(item) with item = Cc1ncc(CO)c2c1Oc1nc(-c3ccc(Cl)cc3)nc(SCC(=O)N3CCCCC3)c1C2 yes

// outcome(item) with item = CCN(CC)C(=O)CSc1nc(-c2ccc(C)cc2)nc2c1Cc1c(CO)cnc(C)c1O2 yes

// outcome(item) with item = Cc1ncc(CO)c2c1Oc1nc(-c3ccc(F)cc3)nc(SCC(=O)N3CCCCC3)c1C2 no

* * *

- Test system: DeltatarO mutant
- assay name: S. aureus survival, RN4220 and DeltatarO strains – OD600, teichoic acid synthesis inhibitors, primary screen (AID 463173)
- experimental conditions: S. aureus RN4220 wild type/DeltatarO growth, OD600, 18 h, screened at 18.75 µg/mL (by protocol)
The whole screen tested about 52,000 compounds, of which about 4,300 (8.3%) were called active. Rule as the data show it: active = survival mostly below about 52% (no sharp cut-off); inactive = mostly above about 56%. The entries come from a sample that favours actives as a whole.
Select the correct class. Options are true (active), false (inactive) and nothing else.

// outcome(item) with item = O=C(Cc1ccccc1)Nc1sc2c(c1C(=O)Nc1cccc(Cl)c1)CCCCC2 false

// outcome(item) with item = Cc1cccc(NC(=O)c2c(NC(=O)C(F)(F)F)sc3c2CCCCC3)c1 true

// outcome(item) with item = Cc1cccc(NC(=O)c2c(N)sc3c2CCC(C)C3)c1 (stereo not given) false

// outcome(item) with item = CCCN1C(=O)C2(c3ccccc31)c1c(oc3ccc(F)cc3c1=O)C(=O)N2CCCOC(C)C (stereo not given) false

// outcome(item) with item = CCC(=O)N1CCc2cc(Br)cc(S(=O)(=O)N3CCCC(C(=O)Nc4ccc(OC)cc4OC)C3)c21 (stereo not given) false

// outcome(item) with item = O=C(Cc1ccccc1)NC1CCN(S(=O)(=O)c2cccc(F)c2)CC1 false

// outcome(item) with item = COc1ccc(-c2nc(SCC(=O)NC3CCCC3)c(-c3ccc(C)cc3)[nH]2)cc1OC false

// outcome(item) with item = Cc1cccc(NC(=O)c2ccc(F)c(S(=O)(=O)N3CCN(c4ccc(F)cc4)CC3)c2)c1 true

// outcome(item) with item = Cc1cccc(NC(=O)c2c(NC(=O)c3ccccc3)sc3c2CCC3)c1 false

// outcome(item) with item = O=C(Nc1sc2c(c1C(=O)Nc1cccc(Cl)c1)CCCC2)c1cccs1 false

* * *

- Test system: DeltatarO mutant
- assay name: S. aureus survival, RN4220 and DeltatarO strains – OD600, teichoic acid synthesis inhibitors, primary screen (AID 463173)
- experimental conditions: S. aureus RN4220 wild type/DeltatarO growth, OD600, 18 h, active compounds read low, screened at 18.75 µg/mL (by protocol)
Among all 52,000 compounds or so, about 4,300 (8.3%) were called active. The full list was thinned out, with actives kept by preference.
Criterion: survival strictly under 80%. Met: MET. Not met: NOT MET.

Confirm or reject: survival of CCOC(=O)c1cc(S(=O)(=O)N2CCN(c3ccc(C(C)=O)cc3)CC2)[nH]n1 lies strictly below 80% NOT MET

Confirm or reject: survival of CC(C)Oc1ccc(C(=O)N(Cc2ccc(N(C)C)cc2)C2CCS(=O)(=O)C2)cc1 (stereo not given) lies strictly below 80% MET

Confirm or reject: survival of Cc1cc(C)cc(OCC(=O)N(Cc2ccc(Cl)cc2)C2CCS(=O)(=O)C2)c1 (stereo not given) lies strictly below 80% MET

Confirm or reject: survival of CCc1ccc(OCC(=O)N(Cc2ccc(C)o2)C2CCS(=O)(=O)C2)cc1 (stereo not given) lies strictly below 80% NOT MET

Confirm or reject: survival of CCN(C(=O)CN(C)S(=O)(=O)c1ccc2c(c1)c(=O)n(C)c(=O)n2C)c1ccc(OC)cc1 lies strictly below 80% NOT MET

Confirm or reject: survival of Cc1cc(N(C)Cc2ccccc2)n2nc(-c3ccc(C(C)(C)C)cc3)nc2n1 lies strictly below 80% MET

Confirm or reject: survival of Cc1cc(C)n2nc(-c3ccc(Cl)cc3)nc2n1 lies strictly below 80% MET

Confirm or reject: survival of COc1ccc(OCC(=O)N(Cc2ccc(C)o2)C2CCS(=O)(=O)C2)cc1 (stereo not given) lies strictly below 80% NOT MET

Confirm or reject: survival of CCN(CC)c1cc(C)nc2nc(-c3ccc(C)cc3)nn12 lies strictly below 80% MET

Confirm or reject: survival of Cc1cc(N(CCO)Cc2ccccc2)n2nc(-c3ccc(C(C)(C)C)cc3)nc2n1 lies strictly below 80% MET

* * *

- System: DeltatarO mutant
- assay name: S. aureus survival, RN4220 and DeltatarO strains – OD600, teichoic acid synthesis inhibitors, primary screen (AID 463173)
- experimental conditions: S. aureus RN4220 wild type/DeltatarO growth, OD600, 18 h, screened at 18.75 µg/mL (by protocol)
Among all 52,000 compounds or so, about 4,300 (8.3%) were called active. No stated cut-off is given here; in the data, active means survival mostly below about 52% (no sharp cut-off); inactive means mostly above about 56%. For the sample, actives were picked, then their nearest neighbours and some compounds at random.
Select the correct class. Options are active, inactive and nothing else.

// outcome(item) with item = Nc1nc(N)c(S(=O)(=O)c2ccccc2)c(Nc2ccccc2)n1 inactive

// outcome(item) with item = CC(=O)Nc1cc(-c2ccccc2)nn1Cc1cccc(Cl)c1 inactive

// outcome(item) with item = Cc1ccc(-c2cc(C(=O)O)n(Cc3ccccc3)n2)cc1 inactive

// outcome(item) with item = CCOC(=O)c1cc(-c2ccc(C)cc2)nn1Cc1ccccc1 active

// outcome(item) with item = O=C(CSc1nc(-c2cccs2)nc2cc(=O)[nH]n12)Nc1cccc(C(F)(F)F)c1 inactive

// outcome(item) with item = O=C(O)c1cc(-c2ccccc2)nn1Cc1ccccc1 inactive

// outcome(item) with item = CCOc1ccc(-n2c(=O)c3c4c(sc3n(CC(=O)NC(C)CC)c2=O)CCCCC4)cc1 (stereo unspecified) inactive

// outcome(item) with item = Cc1nc(N)c(S(=O)(=O)c2ccccc2)c(Nc2ccc(Br)cc2)n1 inactive

// outcome(item) with item = CCOC(=O)c1cc(-c2ccccc2)nn1Cc1ccccc1 active

// outcome(item) with item = CCOC(=O)c1ccc(N2C(=O)c3[nH]nc(-c4ccccc4)c3C2c2cccs2)cc1 (stereo unspecified) inactive

// outcome(item) with item = Cc1ccc2c(c1)cc1c(=O)n(Cc3cccc(Cl)c3)nc(C)n12 inactive

* * *

- System: DeltatarO mutant
- assay name: S. aureus survival, RN4220 and DeltatarO strains – OD600, teichoic acid synthesis inhibitors, primary screen (AID 463173)
- experimental conditions: S. aureus RN4220 wild type/DeltatarO growth, OD600, 18 h, active compounds read low, screened at 18.75 µg/mL (by protocol)
Among all 52,000 compounds or so, about 4,300 (8.3%) were called active. The sample holds actives, similar compounds and a random draw of the others, so the mix is not that of the screen.
reported metric: survival (%)
Numeric only. Scale: %

Record request: survival value, item CCN(CC)S(=O)(=O)c1cccc2nsnc12 79

Record request: survival value, item CCOc1ccc(NC(=O)CSc2nnc(-c3ccncc3)n2-c2ccccc2)cc1 122

Record request: survival value, item COc1ccc(NC(=O)c2nnn(Cc3ccc(Br)cc3F)c2N)c(OC)c1 68

Record request: survival value, item CCn1c(=O)cc(SCC(=O)NCc2ccc(OC)cc2OC)c2ccccc21 66

Record request: survival value, item c1ccc2c(c1)nc1n2CCC1 96

Record request: survival value, item Nc1ccc(Cc2nc3ccccc3[nH]2)cc1 86

Record request: survival value, item Cc1nn(-c2nc3ccccc3[nH]2)c(N)c1-c1ccccc1 2

Record request: survival value, item CC(=O)Nc1nonc1-c1nnc(SCC(=O)Nc2c(C)cccc2C)n1-c1ccccc1 56

Record request: survival value, item COc1ccc(-c2cc(C(F)(F)F)n3nc(C)c(-c4ccccc4)c3n2)cc1OC 69

Record request: survival value, item CCc1ccc2oc(-c3ccc(NC(=O)c4cc5ccccc5o4)cc3)nc2c1 40

Record request: survival value, item COc1ccc(-c2c(C)nn3c(-c4ccccc4)cc(C)nc23)cc1OC 38

Record request: survival value, item CC(=O)Nc1nonc1-c1nnc(SCC(=O)Nc2ccc(C)cc2)n1-c1ccccc1 53

Record request: survival value, item COc1ccc(NC(=O)CSc2nnc(-c3nonc3NC(C)=O)n2-c2ccccc2)cc1 60

Record request: survival value, item CCn1c(SCC(=O)Nc2ccc(C)c(C)c2)nnc1-c1nonc1NC(C)=O 110

Record request: survival value, item COc1ccc(-c2c(C)nn3c(C(F)(F)F)cc(-c4ccccc4)nc23)cc1 62

Record request: survival value, item CC(C)(Cc1nc2ccccc2[nH]1)c1nc2ccccc2[nH]1 97

Record request: survival value, item O=C(Nc1ccc(-c2nc3cc(Cl)ccc3o2)cc1)c1cc2ccccc2o1 52

Record request: survival value, item OC1COCc2nc3ccccc3n2C1 (configuration not stated) 57

Record request: survival value, item CCOc1ccc2c(c1)c(=O)c(S(=O)(=O)c1ccc(C)cc1)cn2CC(=O)Nc1ccc(C)cc1 66

Record request: survival value, item CCc1ccccc1NC(=O)CSc1nnc(-c2nonc2NC(C)=O)n1C 52

Record request: survival value, item CC(=O)Nc1nonc1-c1nnc(SCC(=O)Nc2ccccc2)n1-c1ccccc1 39

Record request: survival value, item CC1CCC(NC(=O)c2ccc(CS(=O)(=O)c3cccc(C(F)(F)F)c3)o2)CC1 (configuration not stated) 75
